Measured cell viability, listed per entry for reference.
System: Vero E6
assay protocol: cell viability relative to DMSO; higher = less toxic
measurement setup: 72 h; 1000 nM
quantity: cell viability (%)

compound: O=C(Nc1ccc2c(O)cc(S(=O)(=O)O)cc2c1)Nc1ccc2c(O)cc(S(=O)(=O)O)cc2c1 [AMI-1]
units label: %
reported: 106

compound: CS(=O)(=O)c1ccc(-c2cnc(NCc3ccco3)n3cnnc23)cc1 [EED226]
units label: %
reported: 105

compound: O=C(O)c1ccc(O)c2ncccc12 [IOX1]
units label: %
reported: 101

compound: CCC/N=C1\S/C(=C\c2ccc(OC[C@H](O)CO)c(Cl)c2)C(=O)N1c1ccccc1C [ponesimod]
units label: %
reported: 91.5

compound: CCc1ccc(CCOc2ccc(CC3SC(=O)NC3=O)cc2)nc1 (stereo not given) [pioglitazone]
units label: %
reported: 83

Origin of values: the supplement of paper PMC13380429
